These measurements were taken from PubChem BioAssay.

z-score overview
ASSAY_SUMMARY: growth of efflux-deficient E. coli DRC39 – strain DRC39, OD650, 24 h, E. coli filamentation inducers, primary screen (AID 1178);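 also: growth measured as culture turbidity by optical density at 650 nm; test concentration not given here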
MEASUREMENT_CONTEXT: E. coli DRC39 acrAB, higher = more signal, called active from +8 up or from −8 down
// print number alone

1) O=C1OCC=C[C@H]2OC34C=CCN(CCN5CCOCC5)C(=O)[C@H]3N(CCCCCCO)C(=O)[C@@H]4[C@@H]12 (stereo partly drawn)    -0.193
2) COc1ccc([Si](C)(C)[C@@H]2[C@@H](CCO)O[C@]3(C(=O)N(Cc4ccc(N5C(=O)c6cccc7cccc5c67)cc4)c4ccccc43)[C@H]2C)cc1    1.68
3) C=CCC(OC(C)=O)[C@@H]1[C@@H](N(Cc2cc3ccccc3o2)C(=O)c2ccc(-c3ccccc3)cc2)c2cc(OCCCO)ccc2N1C(=O)Cc1ccc2ccccc2c1 (stereo partly drawn)    1.15
4) Oc1ccc2cc[n+](Cc3cccc(OC(F)(F)F)c3)cc2c1    0.4

Okay, now this compound:
Query: Looking for the measured z-score of "COC(=O)[C@@]1(Cc2ccc(F)cc2)[C@H]2c3cc(C(=O)N4CCCC4)n(CCc4ccc(OC)c(Br)c4)c3C[C@H]2CN1C(=O)c1ccccc1" , can you help?
Reply: -0.588
